src = paper PMC7861197

Test: FTC concentrations in rat tissues by LC-MS/MS
Assay type: in vivo, Sprague Dawley rats
Conditions: male, Sprague Dawley, rat, spleen, iv, 10 mg FTC equivalents/kg
readoutKind: concentration at 4 h (ng/g)

compound="Nc1nc(=O)n([C@@H]2CS[C@H](CO)O2)cc1F [FTC, Emtricitabine, reference compound]" readoutkind="concentration at 4 h" experimentalvalue=106

----------
Assay: Plasma pharmacokinetics of PLS-FTC vs FTC in rats
Settings: male, Sprague Dawley, rat, plasma, iv, 10 mg/kg
readoutKind: Cmax (ng/mL)

molecule="Nc1nc(=O)n([C@@H]2CS[C@H](CO)O2)cc1F [FTC, Emtricitabine, reference compound]" experimentalvalue=5850

----------
Assay: Plasma pharmacokinetics of PLS-FTC vs FTC in rats
Details: male, Sprague Dawley, rat, plasma, iv, 10 mg/kg
readoutKind: half-life

compound="Nc1nc(=O)n([C@@H]2CS[C@H](CO)O2)cc1F [FTC, Emtricitabine, reference compound]" experimentalvalue="14.1 h"

----------
Assay: Plasma pharmacokinetics of PLS-FTC vs FTC in rats
Conditions: male, Sprague Dawley, rat, plasma, iv, 10 mg/kg
readoutKind: Vd (L/kg)

molecule="Nc1nc(=O)n([C@@H]2CS[C@H](CO)O2)cc1F [FTC, Emtricitabine, reference compound]" measurementunit=L/kg experimentalvalue=2.94

----------
Experiment: FTC concentrations in rat tissues by LC-MS/MS
Format: in vivo, Sprague Dawley rats
Details: male, Sprague Dawley, rat, axillary lymph node, iv, 10 mg FTC equivalents/kg
readoutKind: concentration at 4 h (ng/g)

molecule="Nc1nc(=O)n([C@@H]2CS[C@H](CO)O2)cc1F [FTC, Emtricitabine, reference compound]" readoutkind="concentration at 4 h" measurementunit=ng/g experimentalvalue=109

----------
Assay: FTC concentrations in rat tissues by LC-MS/MS
Format: in vivo, Sprague Dawley rats
Details: male, Sprague Dawley, rat, inguinal lymph node, iv, 10 mg FTC equivalents/kg
readoutKind: concentration at 4 h (ng/g)

compound="Nc1nc(=O)n([C@@H]2CS[C@H](CO)O2)cc1F [FTC, Emtricitabine, reference compound]" measurementunit=ng/g experimentalvalue=87

----------
Test: Plasma pharmacokinetics of PLS-FTC vs FTC in rats
Settings: male, Sprague Dawley, rat, plasma, iv, 10 mg/kg
readoutKind: AUC (ng·h/mL)

compound="Nc1nc(=O)n([C@@H]2CS[C@H](CO)O2)cc1F [FTC, Emtricitabine, reference compound]" experimentalvalue=6400
